test: Index of Bioavailability (plasma thrombin time AUC, oral vs i.v.); type: in vivo; details: rats; dose-adjusted AUC of plasma TT time course, p.o. vs i.v. bolus
Square brackets hold non-standard residues; d marks the D form. Peptide text beside a SMILES is read from it. ξ: configuration not given here. dPip = O=C(O)[C@H]1CCCCN1; dThz = O=C(O)[C@H]1CSCN1; ξAze = O=C(O)C1CCN1
Reported Percent Relative Activity (Index of Bioavailability) values follow for various molecules
Observable: Percent Relative Activity (Index of Bioavailability) (%)

1) Cl.Cl.N=C(N)NCCC[C@@H](C=O)NC(=O)C1CCN1C(=O)[C@H]1CCCCN1 (stereo partly shown) [Example 3] (H-[dPip]-[ξAze]-Arg-aldehyde) : 32
2) Cl.Cl.N=C(N)NCCC[C@@H](C=O)NC(=O)[C@@H]1CCCN1C(=O)[C@H]1CCCCN1 [Example 1] (H-[dPip]-Pro-Arg-aldehyde) : 38
3) Cl.Cl.Cl.N=C(N)NCCC[C@@H](C=O)NC(=O)[C@@H]1CCCN1C(=O)[C@H]1C[C@@H](Oc2ccccc2)CN1.O (relative stereo) [Example 12] : 16
4) Cl.Cl.N=C(N)NCCC[C@@H](C=O)NC(=O)[C@@H]1CCCN1C(=O)C1NCCCC2CCCCC21 (mixture of isomers) [Example 8] : 43
5) Cl.Cl.N=C(N)NCCC[C@@H](C=O)NC(=O)[C@@H]1CCCN1C(=O)[C@H]1CSCN1 [Example 4] (H-[dThz]-Pro-Arg-aldehyde) : 16
6) Cl.Cl.N=C(N)NCCC[C@@H](C=O)NC(=O)[C@@H]1CCCN1C(=O)C1CNCCN1 (stereo partly shown) [Example 9] : 19
7) Cl.Cl.N=C(N)NCCC[C@@H](C=O)NC(=O)[C@@H]1CCCN1C(=O)C1NCCS1 (stereo partly shown) [Example 10] : 5
